These entries and their values trace back to patent US8193369B2.

Label Satisfied when melting point is strictly below 200 °C; otherwise label Not satisfied.

molecule	classification
CCCC(CCC)S(=O)(=O)c1ccc2c(c1)nc(C(C)(C)C)n2CC1CCN(C(C)=O)CC1 [compound 67]	Satisfied
COc1cccc(S(=O)(=O)c2ccc3c(c2)nc(C(C)(C)C)n3CC2CCN(C(C)=O)CC2)c1 [compound 82]	Satisfied
CC(=O)N1CCC(Cn2c(C(C)(C)C)nc3cc(S(=O)(=O)c4c(Cl)cccc4Cl)ccc32)CC1 [compound 60]	Not satisfied
CC(=O)N1CCC(Cn2c(C(C)(C)C)nc3cc(S(=O)(=O)c4ccccc4Cl)ccc32)CC1 [compound 71]	Not satisfied
CC(C)(C)c1nc2cc(S(=O)(=O)c3nccs3)ccc2n1CC1CCN(C=O)CC1 [compound 49]	Satisfied

---

line_notation	melting point
COCCS(=O)(=O)c1ccc2c(c1)nc(C(C)(C)C)n2CC1CCN(C=O)CC1	> 100 °C
CC(C)(C)c1nc2cc(S(=O)(=O)CC3CC3)ccc2n1CC1CCN(C=O)CC1	186 °C
CC(=O)N1CCC(Cn2c(C(C)(C)C)nc3cc(S(=O)(=O)CC4CC4)ccc32)CC1	150 °C
CCS(=O)(=O)c1ccc2c(c1)nc(CC(C)(C)C)n2CC1CCN(C(C)=O)CC1	152 to 155 °C
CC(C)(C)c1nc2cc(S(=O)(=O)CCCC(F)(F)F)ccc2n1CC1CCN(C=O)CC1	> 100 °C
COC(=O)N1CCC(Cn2c(C(C)(C)C)nc3cc(S(=O)(=O)CCCC(F)(F)F)ccc32)CC1.Cl	> 100 °C
CC(=O)N1CCC(Cn2c(C(C)(C)C)nc3cc(S(=O)(=O)c4cccc(Cl)c4)ccc32)CC1	192 °C
CCS(=O)(=O)c1ccc2c(c1)nc(C(C)(C)C)n2CC1CCN(C=O)CC1	188 to 190 °C

---

system_name: human CB2 (hCB2) receptor (Homo sapiens)
method_summary: Inhibition of forskolin-activated cAMP production upon activation of human CB2 receptor (HTRF)
test_settings: CHO-K1 cells stably transfected with hCB2; 15 μM forskolin; pEC50=-log(EC50); relative to WIN55212-2
EC50 reference

line_notation	EC50
COc1cccc(OC)c1Sc1ccc2c(c1)nc(C(C)(C)C)n2CC1CCN(C(C)=O)CC1	~0.513 nM
CC(=O)N1CCC(Cn2c(C(C)(C)C)nc3cc(S(=O)(=O)c4cccc(C#N)c4C)ccc32)CC1	~16.6 nM
CC(=O)N1CCC(Cn2c(C(C)(C)C)nc3cc(SCc4ccccc4)ccc32)CC1	12.9 nM
CCS(=O)(=O)c1ccc2c(c1)nc(CC(C)(C)C)n2CC1CCN(C(C)=O)CC1	53.7 nM

---

system_name: human CB2 (hCB2) receptor (Homo sapiens, UniProt P34972)
Sequence (P34972 whole entry): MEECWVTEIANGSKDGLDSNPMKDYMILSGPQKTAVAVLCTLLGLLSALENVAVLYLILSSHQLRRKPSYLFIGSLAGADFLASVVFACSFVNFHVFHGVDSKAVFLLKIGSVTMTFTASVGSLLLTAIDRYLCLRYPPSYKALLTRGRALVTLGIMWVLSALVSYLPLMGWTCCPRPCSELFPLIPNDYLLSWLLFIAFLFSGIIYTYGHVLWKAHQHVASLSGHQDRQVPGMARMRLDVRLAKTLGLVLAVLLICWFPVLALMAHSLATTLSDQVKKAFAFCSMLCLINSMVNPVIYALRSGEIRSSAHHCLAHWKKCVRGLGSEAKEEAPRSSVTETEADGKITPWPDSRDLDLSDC
method_summary: Inhibition of forskolin-activated cAMP production upon activation of human CB2 receptor (HTRF)
test_settings: CHO-K1 cells stably transfected with hCB2; 15 μM forskolin; pEC50=-log(EC50); relative to WIN55212-2

line_notation	system_name	unit_of_measure	EC50
CC(=O)N1CCC(Cn2c(C(C)(C)C)nc3cc(S(=O)(=O)CCc4ccc(F)cc4)ccc32)CC1	human CB2 (hCB2) receptor (Homo sapiens, UniProt P34972)	nM	3.39
CC(=O)N1CCC(Cn2c(C(C)(C)C)nc3cc(S(=O)(=O)Cc4ccc(F)cc4)ccc32)CC1	human CB2 (hCB2) receptor (Homo sapiens, UniProt P34972)	nM	12.3
CC(=O)N1CCC(Cn2c(C(C)(C)C)nc3cc(S(=O)(=O)c4cccc(C(F)(F)F)c4)ccc32)CC1	human CB2 (hCB2) receptor (Homo sapiens, UniProt P34972)	nM	4.07

---

system_name: human CB2 (hCB2) receptor (Homo sapiens, UniProt P34972)
Construct: expressed in transfected cells; host or cells: CHO-K1
method_summary: Inhibition of forskolin-activated cAMP production upon activation of human CB2 receptor (HTRF)
Type: cell-based
test_settings: CHO-K1 cells stably transfected with hCB2; 15 μM forskolin; pEC50=-log(EC50); relative to WIN55212-2
pEC50: −log10 of the molar value.
Everything with pEC50 lower than 8 is -1; everything else, including exactly 8, is 1.

compound	classification
CCC(CC)S(=O)(=O)c1ccc2c(c1)nc(C(C)(C)C)n2CC1CCN(C(C)=O)CC1 [compound 61]	1
CC(=O)N1CCC(Cn2c(C(C)(C)C)nc3cc(SCc4ccc(F)cc4)ccc32)CC1 [compound 17]	1
CC(=O)N1CCC(Cn2c(C(C)(C)C)nc3cc(S(=O)(=O)C(C)(C)c4ccccc4)ccc32)CC1 [compound 55]	-1
CC(=O)N1CCC(Cn2c(C(C)(C)C)nc3cc(S(=O)(=O)C(C)(C)C#N)ccc32)CC1 [compound 42]	1
CC(=O)N1CCC(Cn2c(C(C)(C)C)nc3cc(S(=O)(=O)c4cccc(OC(C)C)c4)ccc32)CC1 [compound 100]	1
CC(=O)N1CCC(Cn2c(C(C)(C)C)nc3cc(S(=O)(=O)c4cccnc4)ccc32)CC1 [compound 62]	1
COc1ccc(CSc2ccc3c(c2)nc(C(C)(C)C)n3CC2CCN(C(C)=O)CC2)cc1 [compound 11]	-1

---

pEC50 reference
system_name: human CB2 (hCB2) receptor (Homo sapiens)
method_summary: Inhibition of forskolin-activated cAMP production upon activation of human CB2 receptor (HTRF)
test_settings: CHO-K1 cells stably transfected with hCB2; 15 μM forskolin; pEC50=-log(EC50); relative to WIN55212-2
pEC50: −log10 of the molar value.

molecule	system_name	pEC50
CC(=O)N1CCC(Cn2c(C(C)(C)C)nc3cc(Sc4cccs4)ccc32)CC1 [compound 66]	human CB2 (hCB2) receptor (Homo sapiens)	8.65
CC(=O)N1CCC(Cn2c(C(C)(C)C)nc3cc(Sc4ccncc4)ccc32)CC1 [compound 33]	human CB2 (hCB2) receptor (Homo sapiens)	8.35
CC(=O)N1CCC(Cn2c(C(C)(C)C)nc3cc(Sc4ccccn4)ccc32)CC1 [compound 50]	human CB2 (hCB2) receptor (Homo sapiens)	8.11
CCS(=O)(=O)c1ccc2c(c1)nc(C(C)C)n2CC1CCN(C(C)=O)CC1 [compound 47]	human CB2 (hCB2) receptor (Homo sapiens)	6.02
CC(=O)N1CCC(Cn2c(C(C)(C)C)nc3cc(SCCCO)ccc32)CC1 [compound 13]	human CB2 (hCB2) receptor (Homo sapiens)	8.06
CC(=O)N1CCC(Cn2c(C(C)(C)C)nc3cc(Sc4cccc(N(C)C)c4)ccc32)CC1 [compound 97]	human CB2 (hCB2) receptor (Homo sapiens)	8.32

---

Everything with melting point lower than 200 °C is not met; everything else, including exactly 200 °C, is met.

molecule	classification
CC(C)(C)c1nc2cc(S(=O)(=O)CC3CC3)ccc2n1CC1CCS(=O)(=O)CC1 [compound 31]	met
CC(=O)N1CCC(Cn2c(C(C)(C)C)nc3cc(S(=O)(=O)CC4CCC4)ccc32)CC1 [compound 43]	not met
CC(=O)N1CCC(Cn2c(C(C)(C)C)nc3cc(S(=O)(=O)c4cccs4)ccc32)CC1 [compound 68]	not met
CC(=O)N1CCC(Cn2c(C(C)(C)C)nc3cc(S(=O)(=O)c4nccs4)ccc32)CC1 [compound 40]	not met
CC(=O)N1CCC(Cn2c(C(C)(C)C)nc3cc(S(=O)(=O)c4ccncc4)ccc32)CC1 [compound 34]	not met

---

log10 of EC50 reference
system_name: human CB2 (hCB2) receptor (Homo sapiens)
method_summary: Inhibition of forskolin-activated cAMP production upon activation of human CB2 receptor (HTRF)
test_settings: CHO-K1 cells stably transfected with hCB2; 15 μM forskolin; pEC50=-log(EC50); relative to WIN55212-2
measure_name: log10 of EC50 (log10 of the value in nM)

compound	assay_result
CC(=O)N1CCC(Cn2c(C(C)(C)C)nc3cc(S(=O)(=O)C(C)C#N)ccc32)CC1 (centres unmarked)	0.85
COc1cccc(S(=O)(=O)c2ccc3c(c2)nc(C(C)(C)C)n3CC2CCN(C(C)=O)CC2)c1	0.34
CC(=O)N1CCC(Cn2c(C(C)(C)C)nc3cc(Sc4c(Cl)cccc4Cl)ccc32)CC1	0.20
CC(=O)N1CCC(Cn2c(C(C)(C)C)nc3cc(S(=O)(=O)c4ccc(C#N)cc4)ccc32)CC1	0.57
CC(C)(C)c1nc2cc(SCC3CC3)ccc2n1CC1CCN(C=O)CC1	0.12
COCCS(=O)(=O)c1ccc2c(c1)nc(C(C)(C)C)n2CC1CCN(C=O)CC1	1.79
CC(=O)N1CCC(Cn2c(C(C)(C)C)nc3cc(S(=O)(=O)C(C)C)ccc32)CC1	1.11
CC(=O)N1CCC(Cn2c(C(C)(C)C)nc3cc(S(=O)(=O)c4ccccc4Cl)ccc32)CC1	0.87

---

system_name: human CB2 (hCB2) receptor (Homo sapiens)
Construct: expressed in transfected cells; host or cells: CHO-K1
method_summary: Inhibition of forskolin-activated cAMP production upon activation of human CB2 receptor (HTRF)
Format: cell-based
test_settings: CHO-K1 cells stably transfected with hCB2; 15 μM forskolin; pEC50=-log(EC50); relative to WIN55212-2

compound	system_name	EC50
CC(=O)N1CCC(Cn2c(C(C)(C)C)nc3cc(S(=O)(=O)CC4CCC4)ccc32)CC1 [compound 43]	human CB2 (hCB2) receptor (Homo sapiens)	8.71 nM
CC(=O)N1CCC(Cn2c(C(C)(C)C)nc3cc(S(=O)(=O)c4ccc(N)c(Cl)c4)ccc32)CC1 [compound 110]	human CB2 (hCB2) receptor (Homo sapiens)	~10 nM
CC(=O)N1CCC(Cn2c(C(C)(C)C)nc3cc(S(=O)(=O)c4cccc(C#N)c4)ccc32)CC1 [compound 84]	human CB2 (hCB2) receptor (Homo sapiens)	3.31 nM
CCCC(CCC)Sc1ccc2c(c1)nc(C(C)(C)C)n2CC1CCN(C(C)=O)CC1 [compound 65]	human CB2 (hCB2) receptor (Homo sapiens)	1.74 nM
